System: VDR:RXRa (NR concentration 270 nM, RXRa partner concentration 90 nM)
assay_comment: PBM binding z-score (relative to random genomic background probes); higher = stronger binding; sequences stand for … in GC…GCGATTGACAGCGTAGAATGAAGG
# binarize PBM binding z-score: threshold 4 inclusive, high side Yes, low side No

Is the recorded value of PBM binding z-score equal to or greater than 4 for this sequence? "CCTAGCAGGCCAGGTTCACTCAAGCATTTCGCTT"
No

Another sequence to look at: "CCTAGTTGGTCAGGAAGTCACACACCGGATATGA"
No

Another sequence to look at: "ATATGTAGGTTACATCCGAGTCATTCAGGCTATG"
No

----------
Test system: LXRb:RXRa (NR concentration 270 nM, RXRa partner concentration 90 nM)
assay_comment: PBM binding z-score (relative to random genomic background probes); higher = stronger binding; sequences stand for … in GC…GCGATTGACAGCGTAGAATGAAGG
endpoint_name: PBM binding z-score
Numbers only.

polymer_sequence=ATATGTAGTTTAGGGTCATTCAGAAAGTAGGGAA endpoint_name="PBM binding z-score" assay_result=4.87
polymer_sequence=ATCGAAAGGTCGACGAGGTGAGTATGCACCGTTT endpoint_name="PBM binding z-score" assay_result=2.5
polymer_sequence=CTATGTAGGTTAAGGGGTTCATTCAGTTTGAAAG endpoint_name="PBM binding z-score" assay_result=3.8

Dear reader, for each entry below, please note its PBM binding z-score.
1. ATATGTAGGTTAGCTGGCGTCATTCAGACTAGGC
2. ACTAGCAGGCCAAGGGTGACTCAAGATTAGTCCG
3. AGTCAAAGTTCAGTAGGTAACGTAAGATTCAGCT
4. GATACAGGGTCAATGCCAGAGTACGCGTATTGAT
5. AGAATGAGGTTATACGTAGGTCAGGGAAGAAAGT
6. ACTCGGAGGACAAAGGTCACAGCTACGCCAGTGA
7. CGTCCAAGGTCAATGCTAGGTCACTGAAAGCATT

-0.239
-0.119
1.67
3.44
3.2
4.75
4.6

Parameter requested: PBM binding z-score. Apply to each item below.
1. CGAACTAGGTCCTTGACAGGACAGTGAATAGTAA
2. TCGAGTAGGTTACGGGGGCATTTAGGGATGAAGA

1. -0.566
2. 5.04

----------
Give measured PBM binding z-score for each item. Keep answers brief.
Tested on: FXR:RXRa (NR concentration 270 nM, RXRa partner concentration 90 nM)
assay_comment: PBM binding z-score (relative to random genomic background probes); higher = stronger binding; sequences stand for … in GC…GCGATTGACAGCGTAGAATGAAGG
Answers are plain numbers.

Look over these answered cases.
polymer_sequence=CCGAGTAGGTCACGAGGGGGCATTCAGTGCGAAT endpoint_name="PBM binding z-score" assay_result=6.09
polymer_sequence=AGTCAAAGTTCATCAAGGTAACGTAAGATATGCT endpoint_name="PBM binding z-score" assay_result=6.08
polymer_sequence=TCTAGTAGGTTACGGGGGCATTCAGGGATGAAGA endpoint_name="PBM binding z-score" assay_result=3.33

Below is a list of sequences. For each, state its recorded PBM binding z-score.
1. CAAACTAGGTCACGAAAGGTCAACGTCGAATGAC
2. AGTCAAAGTTCAGGACGAGGTACCGTAAAGCACG
3. TAGCATAGGTCATGCGGGCCAGTATAGTGTCGGC
4. CCGAGTAGGTTACGAGGGGGGATTCAGTGCGAAT

7.41
3.73
5.29
2.34

Hi! Can you tell me PBM binding z-score for each of these sequences?
1. CCCGCTAGGTCATGGTCAGCTAATCTACAGTATG
2. CGTCCAAGGTCAAGGTGAGTGAAAGAGACTCGAA
3. AATACAGGGTCACTAGGCCCGAGTAGGTACGAAT
4. CGAACTAGGTCAAAGGACAGGGAAAGGCGACGTA
5. CCTTCTGGGCCATTCAGAGGTCATTGATCATATG
6. CTATGTAGGTTGAGGGGGTCATTCAGTTTGAAAG
7. CGAACTAGGTGATTGACAGGACAGTGAATAGTAA

1: 3.68; 2: 7.1; 3: 6.16; 4: 4.04; 5: 2.86; 6: 4.59; 7: 0.0682

For each listed entry, give its PBM binding z-score.
1. TAGCCTAGGTCATGCGGGCCAGTATAGTGTCGGC
2. CCTTACGGGTCACTCCAGGTTCTAGCATCGGAGT
3. CTGTGTAGGTTAAGGGGGTCATTCAGTTTGAAAG
4. CCGAGTAGGTTACGAGAGGGCATTCAGTGCGAAT
5. CTCGAAAGGTCAGTTGAGGTGAGTATACGGATAA
6. ACTAGTTGGTCAGCTGAGGTAACACACAATTCGG

[3.95, 4.8, 5.15, 1.04, 6.96, 1.15]

Count: 4. Required value per item: PBM binding z-score.
1. CCTTACGGGTCAGGGTTATAGCACGGGTGGTACG
2. ATATGTAGGTTAGGGACATTCAGAAAGTAGGGAA
3. CGAACTAGGTCACCAGGACAGTGGAGAGGTTGGA
4. AGAACGAGGGCAATGAGTTCATAGCACGGGTGGC

[3.45, 0.703, 4.02, 1.78]

Report PBM binding z-score for each item below.
1. TCTAGCAGGCCATAGGGTCACTCAAGAGGTACGG
2. ACTAGCAGGTCAAGGGTCACTCAAGATTAGTCCG
3. CAAACTAGGTCACAGAGGTCAAAGTTCGTGCGTA

2.31
6.89
7.37

Please state, for each entry, its recorded PBM binding z-score.
1. ACTTACGGGTCAACGACGTTATAGCACGCGTATA
2. TCGAGTAGGTTACGGGGGCATTCATGGATGAAGA
3. CAAACTAGGTCAAAGGTCAAAGACGAGCCAACCA
4. CGTCTAAGGTCAGCAGGTCAGTGAAAGCGACGTG
5. ATCGAATGGTCGTGAGGTGAGTATACAGAAAGGC
6. ATATGTAGGTTAGGGTCATTCTGAAAGTAGGGAA
7. TCGAGTAGGTTACGGGGGCATTCCGGGATGAAGA

6.03
2.37
8.68
6.71
0.132
4.59
2.68

Would you mind giving PBM binding z-score for every sequence in the list below?
1. CGTCAAAGTTCAAGGCAACGTAACAGAAAGCAGC
2. GCTGCTAGGTCGACTGATGGTCAGCTAAAGCTCG
3. AGTCAAAGTTGATCTAGGTAACGTAAGATATGCT
4. CGAACTAGGTCAGCAGGACAGTGAAGAGGTTGGA
5. CCTACTGGGCCAAGCTCATTGATCAGTCAAAGCA
6. CTCGAAAGGTCGGTTGAGGTCAGTATACGGATAA
7. CGAACTAGATCACCAGGACAGTGAAGAGGTTGGA

1. 5.83
2. -0.376
3. -0.0957
4. 1.24
5. -0.645
6. 5.06
7. -0.196

Fill in PBM binding z-score for each of the 3 sequences listed.
1. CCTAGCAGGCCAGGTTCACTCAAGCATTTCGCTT
2. CCAGACAGGTGAAAGGTCACTCAGTCTGGTACGC
3. ATATGTAGGTTAGGATCATTCAGAAAGTAGGGAA

0.117
5.43
0.633

----------
Test system: PXR:RXRa (NR concentration 270 nM, RXRa partner concentration 90 nM)
assay_comment: PBM binding z-score (relative to random genomic background probes); higher = stronger binding; sequences stand for … in GC…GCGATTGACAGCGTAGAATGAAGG
So I've got a bunch of sequences here, and I need their PBM binding z-score values.
Answers are plain numbers.

Consider the following illustrative entries.
polymer_sequence=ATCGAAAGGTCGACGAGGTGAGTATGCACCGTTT endpoint_name="PBM binding z-score" assay_result=2.99
polymer_sequence=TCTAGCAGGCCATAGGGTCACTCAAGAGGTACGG endpoint_name="PBM binding z-score" assay_result=2.43
polymer_sequence=TCGCGTAGGTTACGGGGGCATTCAGGGATGAAGA endpoint_name="PBM binding z-score" assay_result=3.16
polymer_sequence=CCTTACGGGTCACTGACAGGTCATAGCATTTGGA endpoint_name="PBM binding z-score" assay_result=5.34
polymer_sequence=CCTACTGGGCCATCAGGTGATTGATATCAACGTT endpoint_name="PBM binding z-score" assay_result=-0.668

Could you tell me which PBM binding z-score is on file for "TCGAGTAGGGTACGGGGGCATTCAGGGATGAAGA" ?
3.3

----------
Test system: THRa:RXRa (NR concentration 90 nM, RXRa partner concentration 90 nM)
assay_comment: PBM binding z-score (relative to random genomic background probes); higher = stronger binding; sequences stand for … in GC…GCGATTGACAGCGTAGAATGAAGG
endpoint_name: PBM binding z-score
One number for each entry.

polymer_sequence=GCTTACGGGTCAAAGGTTATAACATGAATAGAAT endpoint_name="PBM binding z-score" assay_result=4.13
polymer_sequence=CGAGCTAGGTCAAAGGACAGTGAAAGGCGACGTA endpoint_name="PBM binding z-score" assay_result=2.3
polymer_sequence=AGCTCTAGGTAAAAGTTCAGTGAATCCCGAGGAT endpoint_name="PBM binding z-score" assay_result=1.14
polymer_sequence=CCTAGTTGGTCAAGGTCACACATGCTATAGGTAC endpoint_name="PBM binding z-score" assay_result=3.96
polymer_sequence=CTATGTAGGTTAAGGGGGTCCTTCAGTTTGAAAG endpoint_name="PBM binding z-score" assay_result=2.17

Answer for every listed entry: what is its PBM binding z-score? The entries follow.
1. TCGAGTAGGTTACCGGGGCATTCAGGGATGAAGA
2. TCGAGTAGGTTACGGGGGCATTCGGGGATGAAGA
3. CTATGTAGGTTAAGGGGGTGATTCAGTTTGAAAG

[2.25, 4.01, 2.21]

Okay, here is my list. What is PBM binding z-score for each of these?
1. CGAACTAGGTCAAAGGACTGTGAAAGGCGACGTA
2. ACTCGGAGGACAAAGGTGAGAGCTACGCCAGTGA
3. CCTAGTTGGTCAAGGTCACGCACGCTATAGGTAC
4. ATCTCTAGGTAAATGTTCAGTGAATCCCGAGGAT

[2.19, 1.68, 4.06, 0.097]
